molecular target: Grb2 SH2 (UniProt P62993); assay: SH2 binding enrichment of the phosphorylated peptide, bacterial display (enrichment ratio); higher = better substrate or ligand; peptides without Tyr show the background;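 further: peptide library displayed on the E. coli surface as eCPX fusions, selected cells deep-sequenced, score is each peptide's frequency after selection divided by its frequency in the input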
Sequence (P62993 whole entry, looked up, the tested form may be a part): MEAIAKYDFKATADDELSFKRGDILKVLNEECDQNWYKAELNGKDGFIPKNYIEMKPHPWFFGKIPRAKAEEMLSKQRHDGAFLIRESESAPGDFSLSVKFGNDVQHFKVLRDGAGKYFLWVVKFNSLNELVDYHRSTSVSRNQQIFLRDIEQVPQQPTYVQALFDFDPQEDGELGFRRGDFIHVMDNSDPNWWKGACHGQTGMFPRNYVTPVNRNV
Label rule, in plain words: SH2 binding enrichment of 0.9 and up is Fulfilled, under 0.9 is Not fulfilled.

Textbook exercise: given the entry SLIDMYSEVPD [OPA1_Y268_L272P] , state whether its SH2 binding enrichment is greater than or equal to 0.9.
Not fulfilled

Could you verify whether the entry GRDVIYKGFED [NFU1_Y194_G190R] shows SH2 binding enrichment of no less than 0.9?
Not fulfilled

Quick check: does DNEAIYDICRC [TUBA4A_Y210_R215C] have SH2 binding enrichment greater than or equal to 0.9?
Fulfilled

Quick check, SH2 binding enrichment >= 0.9? KEEEDYKEENN [BMS1_Y651]
Not fulfilled

Would you say GCLSKYSGVFS [TUBGCP6_Y1624_V1621L] shows SH2 binding enrichment at minimum 0.9?
Fulfilled

In plain terms: is recorded SH2 binding enrichment at least 0.9 for MRAIIYNSSTA [PLEKHA7_Y243_L241I] ?
Not fulfilled

In plain terms: is recorded SH2 binding enrichment at least 0.9 for RFLERYIFNPE [HLA-DPB1_Y57_R61P_YF] ?
Fulfilled

Decide: SH2 binding enrichment of KKGIVYIFNGR [ITGAV_Y404] >= 0.9?
Fulfilled

Kindly determine if SH2 binding enrichment recorded for STSYDYCRVPM [BST2_Y8] is above or exactly 0.9.
Not fulfilled

# check: SH2 binding enrichment of AAETTYDKILK [GDNF_Y156] is greater than or equal to 0.9
Not fulfilled

Does the reported SH2 binding enrichment for ADKAAYLQSMN [MYH2_Y389_L393M] fall at or above the 0.9 mark?
Not fulfilled

Given RESFKYFPSSL [CXXC1_Y218_YF] , state whether its SH2 binding enrichment is at least 0.9.
Fulfilled

Check this sequence for SH2 binding enrichment at or above 0.9: YIIFIYAMKKK [SLCO1B1_Y645_L643F]
Fulfilled

Has ISRLKYPVSQQ [BTK_Y375] a recorded SH2 binding enrichment greater than or equal to 0.9?
Fulfilled

Is SH2 binding enrichment for QRRNVYYYSYL [PTEN_Y176_Y174N] at or above 0.9?
Fulfilled

Could you verify whether the entry ITGNGYYFRVF [MYBPC3_Y1135_I1131T] shows SH2 binding enrichment of no less than 0.9?
Not fulfilled

API: above_or_equal(metric=SH2 binding enrichment, cutoff=0.9) for item SNKLFYQLEQE [PDPR_Y110_YF]
Not fulfilled

# check: SH2 binding enrichment of FFVVEYRDQKP [MUC17_Y4332_YF] is greater than or equal to 0.9
Fulfilled

hey, is SH2 binding enrichment for this one >= 0.9? ATKNDYWAMLA [WWOX_Y287_P282A]
Not fulfilled

Hi team, for INNIDYFKNTT [FGFR2_Y656_K659N_YF] , is the recorded SH2 binding enrichment at or above 0.9?
Not fulfilled

Given YPPTHYIRRVP [SLC4A11_Y820] , state whether its SH2 binding enrichment is at least 0.9.
Not fulfilled

Confirm if SH2 binding enrichment reported for the sequence AFGTVYKGLWI [EGFR_Y727] is 0.9 or above.
Not fulfilled

Say whether DDLEVYLKHLL [SACS_Y3477] shows SH2 binding enrichment of 0.9 or more.
Not fulfilled

Quick check: does TFRPPYYHRNC [HGD_Y333] have SH2 binding enrichment greater than or equal to 0.9?
Fulfilled

Threshold query (SH2 binding enrichment >= 0.9) on KNNDGYIDYAE [MCFD2_Y135]
Fulfilled

Hi team, for MKNDLYQTPLH [NFKB1_Y582_R578K] , is the recorded SH2 binding enrichment at or above 0.9?
Not fulfilled

This collection of values is drawn from the supplement of paper PMC10065799.
